Test system: K4 kissing-loop RNA reporter
ASSAY COMMENT: apparent KD of K4 kissing-loop reporter; higher = weaker reporter binding
CONDITION CONTEXT: Eterna round: R107; input ligand: tryptophan 2.4 mM
QUANTITY NAME: apparent KD of K4 kissing-loop reporter (nM)
# value in nM; strip the unit string

// returns reported apparent KD of K4 kissing-loop reporter for input GCAGUGAUGUUGCUGAUGUGCAGUGGUAGUCGAGGACCGGUACGGCCGCCACUCGGUGAGAAUUUGCUAAUACAUCGAUAAGUGA [XVII]
904

Then this sequence: UGUACCGAGUCAGGAUAUCGCGUCGAAAGACGAAACGAGUGAUGUUCGAAUCGAUCGAAAGAUCGUCGAGAAGGGACUUGGUACU [FmnBS 22 #SwitchBubble #StaticStem #DoubleMagnetSystem]
589

Then this sequence: AGUUCCUCUGUCGAUACCAGCUUCAGUUGGCGGCCAGUGAUGUUGGUAUCGCCGAUGCCAAGCCCUUGGCAGCGACAUGAGACCC [Lausso]
197

Then this sequence: GCCUAGCAGGGAAGGAGCGGCAUAGGCAUAGAUAAUAUGCAGUUAGUGAUGUUAACACUAUGCCAGGUAGGUCGCCCUGCUAGGC [KL-SSArg B8]
125

Then this sequence: AACGUAGCUACUGAUACCAGACUUUUUCUUGUAUAUUAGUCAAGUGAUGUUUGACUUUUAGUCCCUUGGCAGCAGUUGCUACGAA [JR_Nu_SSTheophyB_Sub028]
98.3

---

Test system: K4 kissing-loop RNA reporter;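 note: bound reporter read as fluorescence of individual clusters on recovered sequencing chips by microscopy, with normalized cluster intensities fitted with a binding model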
ASSAY COMMENT: apparent KD of K4 kissing-loop reporter; higher = weaker reporter binding
CONDITION CONTEXT: Eterna round: R107; input ligand: theophylline 20 uM
What apparent KD of K4 kissing-loop reporter was measured for each of the following?
# value in µM; strip the unit string

// returns reported apparent KD of K4 kissing-loop reporter for input AUAGAGAAGUGGCACCCUCACUAAAACAGUCGAGGACCGGUACGGCCGCCACUCGCGCGCUUUAGUGAUGUUAAAGAUGUGAAAA
0.508

Then this sequence: UUCGUAGUAGGAAACUAUUACGAAAAGGAAGGAGCGGCGAAGAAGCCAGGUAGGUCGCCUAUUGACAGUGAUGUUGUUAUAUAGA [#10]
0.205

Then this sequence: AAGUAGCUCUCGGCCGCCACUCCUCAGUGAUGUUGAGAUAUUAAGAGCCAAUUGGCUCAUAUAAAGAGGACCGGGAGAGCUACAA [AK4 SS Tryptophan B]
0.282

Then this sequence: ACUGGAAUUGUACUCCAGUGAUGUUGGAGGCAGGAUAUCCAGUAAAGGAGAAGGGCCAUCGCGCUAUUUGGCCGCAGGCGGCCAG [Acela]
0.177

Then this sequence: UUUUGGUACUGAGGAUAUUCGAAGAAAUAUAGUGAUGUUAUAUAAGGAGGAGGAGGGAGGGAGGAAGGAGAAGGCAGAAGAGGAG [ExFMNB.G]
0.225

Then this sequence: GGGUGGUAGGCGGCCGCCACUCUGAGCACCCACUGAGUGAUGUUCGUGGCGUAAGCCUGUUCAUAGAGGACCGGGUUUGUUGUUC [Exclusion Tryptophan B GF 16]
0.47

Then this sequence: AGACAUAUGACUGUAUGUUUCCAAGGUGUCAAGGAUAUAGUAAACACUAGAAGGUGAGAUCACAGGAGUGAUGUUCGAAAAUGGA [theeternabot_sameState_KL_FMN_A_14]
0.233

Then this sequence: CGGAUGUAGUGAUGUUAUAUUAGAUGUAGACGAGGACCGGUACGGCCGCCACUCGAAACGGCUACUAGCGCGUUGCGAGGUGUGC [ExTryptoA.CJ]
0.784
